Ref: paper PMC8952364

Tested on: K. pneumoniae IT977
Assay: Antimicrobial microdilution assay (MIC/MBC)
Type: cell-based, Klebsiella pneumoniae
Details: Klebsiella pneumoniae, IT977; subcultivation, 24 h at 37 °C; read-out: MBC

{"columns": ["MOLECULE", "MEASURED_ON", "MBC"],
 "data": [
  ["[H]/N=C(/N)N[C@H]1[C@H](O)[C@@H](O)[C@H](O[C@@H]2O[C@@H](C)[C@](O)(C=O)[C@H]2O[C@@H]2O[C@@H](CO)[C@H](O)[C@@H](O)[C@@H]2NC)[C@@H](N/C(N)=N\\[H])[C@@H]1O [Streptomycin, reference compound]", "K. pneumoniae IT977", "> 1000 µg/mL"],
  ["C[C@@H]1O[C@@H](O[C@H]2[C@H](Oc3cc(O)c4c(c3)O[C@H](c3ccc(O)cc3)CC4=O)O[C@H](CO)[C@@H](O)[C@@H]2O)[C@H](O)[C@H](O)[C@H]1O [Naringin, naringin]", "K. pneumoniae IT977", "> 1000 µg/mL"],
  ["COc1ccc([C@@H]2CC(=O)c3c(O)cc(O)cc3O2)cc1O [Hesperetin, hesperetin]", "K. pneumoniae IT977", "> 1000 µg/mL"]
]}
